Here, each record is paired with measured SPOT peptide array binding signal intensity data.
# System: SpLsb4
# Method description: SPOT peptide array binding signal intensity (averaged, normalized) (arbitrary units (background-subtracted, floor 0; scale differs between SH3 domains)); higher = stronger binding of the SH3 domain to the peptide
Write the value as a bare number.

[[record]]
binder = "NPNRRAPRRPLSTQH"
measured_result = 906

[[record]]
binder = "TPTSGPPLLPPRNTM"
measured_result = 6300


Record summary for TKFRISLGLPVGAIM : reported SPOT peptide array binding signal intensity = 100

Memo: KTRLRPAFIQQLWSS , reported SPOT peptide array binding signal intensity: 7

Form: binder = RSRRSSFAYPQQVAI ; SPOT peptide array binding signal intensity = 59

SPOT peptide array binding signal intensity in this record for STKKPRPPVKSKPKH : 30

Cited source: the supplement of paper PMC4466140
